assay_system: T1, recombinant human CD47 extracellular domain (ECD), His-tagged, dimer (human, UniProt Q08722 19-141)
T1 construct: Dimeric fraction of the same His-tagged ECD; also called His-tagged CD47-ECD dimer protein
protocol_summary: MSD; CD47-ECD dimer binding to captured SIRP alpha-Fc, mAb 10 µg/ml
endpoint_label: % SIRP alpha Inhibition (%)

binder	readout_unit	test_result
C47B219 (antibody, V domains shown, human IgG2sigma/kappa) VH: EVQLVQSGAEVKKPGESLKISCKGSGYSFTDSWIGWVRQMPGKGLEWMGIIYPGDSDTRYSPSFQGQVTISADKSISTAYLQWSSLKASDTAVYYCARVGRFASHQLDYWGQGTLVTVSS VL: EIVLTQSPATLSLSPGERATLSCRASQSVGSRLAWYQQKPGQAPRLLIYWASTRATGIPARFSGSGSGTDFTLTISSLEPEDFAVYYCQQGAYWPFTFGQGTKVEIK	%	99.4
C47B215 (antibody, V domains shown, human IgG2sigma/kappa) VH: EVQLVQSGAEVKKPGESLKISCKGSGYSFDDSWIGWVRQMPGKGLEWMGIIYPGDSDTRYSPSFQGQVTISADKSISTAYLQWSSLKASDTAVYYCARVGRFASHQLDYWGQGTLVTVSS VL: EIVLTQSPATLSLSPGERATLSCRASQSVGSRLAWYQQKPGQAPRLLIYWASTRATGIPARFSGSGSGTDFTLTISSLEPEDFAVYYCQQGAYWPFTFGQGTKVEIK	%	99.6
C47B241 (antibody, V domains shown, human IgG2sigma/kappa) VH: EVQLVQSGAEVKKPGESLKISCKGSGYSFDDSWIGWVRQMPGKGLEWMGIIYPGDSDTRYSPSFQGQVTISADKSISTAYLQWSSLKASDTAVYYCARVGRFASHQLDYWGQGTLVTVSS VL: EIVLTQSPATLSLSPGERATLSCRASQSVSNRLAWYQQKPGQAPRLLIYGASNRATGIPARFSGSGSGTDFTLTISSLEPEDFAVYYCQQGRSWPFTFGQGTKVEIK	%	99.8
